System: Clostridium sporogenes DSM 1664
test protocol: fold change of Tryptamine concentration vs plate DMSO controls (fold change (ratio)); higher = more amine produced, active = hit call of the paper (significant change in both replicates, either direction)
test parameters: incubation time: 27 h, anaerobic, 37 °C
Where a name gives a salt, the structure may show the parent alone.
For each of the molecules below, state its fold change of Tryptamine concentration.

Parameter requested: fold change of Tryptamine concentration. Apply to each item below.
1. COC(c1ccccc1)(c1ccccc1)[C@H](Oc1nc(C)cc(C)n1)C(=O)O [Ambrisentan] (20 µM)
2. CCN(CC)CCOCCOC(=O)C1(c2ccccc2)CCCC1 [Carbetapentane citrate] (20 µM)
3. CCOC(=O)C(C)(N)Cc1cc(I)c(Oc2cc(I)c(O)c(I)c2)c(I)c1 (stereo not given) [Etiroxate hydrochloride] (20 µM)

Given back:
1: 1.01 (inactive); 2: 1.02 (inactive); 3: 1.03 (inactive)

Record fold change of Tryptamine concentration for all entries; do not skip any.
1. Cc1ccc(-c2cc(C(F)(F)F)nn2-c2ccc(S(N)(=O)=O)cc2)cc1 [Celecoxib] (20 µM)
2. Nc1ncnc2c1ncn2[C@@H]1O[C@H](CO)[C@@H](O)[C@@H]1O [Vidarabine] (20 µM)

Given back:
1. 0.967 (inactive)
2. 0.947 (inactive)

* * *

System: Escherichia coli IAI1
test protocol: fold change of Putrescine concentration vs plate DMSO controls (fold change (ratio)); higher = more amine produced, active = hit call of the paper (significant change in both replicates, either direction)
test parameters: incubation time: 27 h, anaerobic, 37 °C
Please provide measured fold change of Putrescine concentration for the entries that follow.
One number for each entry.

Worked cases, answers included:
O=C(NC1CCN(CCCCC2(C(=O)NCC(F)(F)F)c3ccccc3-c3ccccc32)CC1)c1ccccc1-c1ccc(C(F)(F)F)cc1 [Lomitapide] (20 µM) :: 1.02
Cc1ccc(=O)n(-c2ccccc2)c1 [Pirfenidone] (20 µM) :: 1.01
C[C@H](N)[C@H](O)c1cccc(O)c1 [Metaraminol bitartrate] (20 µM) :: 1.02
Cc1[nH]c(=O)c(C#N)cc1-c1ccncc1 [Milrinone] (20 µM) :: 1.02
CC=C(C)C(=O)OC1C(OC(C)=O)C2(CO)C(O)CC3(C)C(=CCC4C5(C)CCC(OC6OC(C(=O)O)C(OC7OC(CO)C(O)C(O)C7O)C(O)C6OC6OC(CO)C(O)C(O)C6O)C(C)(CO)C5CCC43C)C2CC1(C)C (stereo not drawn) [Beta-Escin] (20 µM) :: 0.986
C(=C\c1ccccc1)/CN1CCN(C(c2ccccc2)c2ccccc2)CC1 [Cinnarizine] (20 µM) :: 0.993

API: the following record is the query input.
Asked: # query: fold change of Putrescine concentration of entry CC(C)(C)C(O)/C=C/c1ccc2c(c1)OCO2 (configuration not stated) [Stiripentol] (20 µM)
Given back: 1.01

* * *

Test system: Escherichia coli IAI1
test protocol: fold change of Putrescine concentration vs plate DMSO controls (fold change (ratio)); higher = more amine produced, active = hit call of the paper (significant change in both replicates, either direction)
test parameters: incubation time: 27 h, anaerobic, 37 °C
Where a name gives a salt, the structure may show the parent alone.
Can you tell me fold change of Putrescine concentration for the items I'm about to list?
Numbers only.

Batch: fold change of Putrescine concentration for all items listed.
1. COc1ccc([C@@H]2CC(=O)c3c(O)cc(O[C@@H]4O[C@H](CO[C@@H]5O[C@@H](C)[C@H](O)[C@@H](O)[C@H]5O)[C@@H](O)[C@H](O)[C@H]4O)cc3O2)cc1O [Hesperidin] (20 µM)
2. O=C(Oc1cccc2cccnc12)c1ccccc1 [Benzoxiquine] (20 µM)
3. C[C@H]1C[C@@H]2[C@H]([C@@H](O)C[C@@]3(C)[C@H]2CC[C@]3(O)C(=O)CO)[C@@]2(C)C=CC(=O)C=C12 [Methylprednisolone, 6-alpha] (20 µM)
4. C=CC(N)CCC(=O)O (stereo unspecified) [Vigabatrin hydrochloride] (20 µM)
5. CC(C)NCC(O)COc1ccc(CCOCC2CC2)cc1 (stereo unspecified) [Betaxolol hydrochloride] (20 µM)
6. CC(=O)Nc1cccc(O)c1 [Metacetamol] (20 µM)

Given back:
[1.01, 0.984, 0.991, 1.02, 1.02, 1.02]

* * *

System: Klebsiella aerogenes DSM 30053
test protocol: fold change of Cadaverine concentration vs plate DMSO controls (fold change (ratio)); higher = more amine produced, active = hit call of the paper (significant change in both replicates, either direction)
test parameters: incubation time: 27 h, anaerobic, 37 °C
Counter-ions that a name gives are not always drawn.
readout name: fold change of Cadaverine concentration
One number for each entry.

# annotated cases, reported fold change of Cadaverine concentration shown
C[C@H]1C[C@@H]2[C@H]([C@@H](O)C[C@@]3(C)[C@H]2CC[C@]3(O)C(=O)CO)[C@@]2(C)C=CC(=O)C=C12 [Methylprednisolone, 6-alpha] (20 µM) :: 1.04
CCCCC1C(=O)N(c2ccccc2)N(c2ccccc2)C1=O [Phenylbutazone] (20 µM) :: 1.04
CN1CCC(=C2c3ccccc3Sc3ccccc32)CC1 [Pimethixene maleate] (20 µM) :: 0.993

Dear colleague, could you send me fold change of Cadaverine concentration for each of the items below? Thanks.
1. COC(=O)Nc1nc2cc(C(=O)c3ccc(F)cc3)ccc2[nH]1 [Flubendazol] (20 µM)
2. OC[C@H]1O[C@@H](O[C@@H]2[C@@H](CO)OC(O)(CO)[C@H]2O)[C@H](O)[C@@H](O)[C@H]1O (mixture of isomers) [Lactulose] (50 µM)
3. CNCCC=C1c2ccccc2C=Cc2ccccc21 [Norcyclobenzaprine] (20 µM)
4. CCCCCN(CCCCC)C(=O)C(CCC(=O)O)NC(=O)c1ccc(Cl)c(Cl)c1 (centres undefined) [Lorglumide sodium salt] (20 µM)
5. CCCCNC(=O)NS(=O)(=O)c1ccc(C)cc1 [Tolbutamide] (20 µM)
6. COC1=C(OC)C(=O)C(CCCCCCCCCCO)=C(C)C1=O [Idebenone] (20 µM)
7. CN1CCN(C(c2ccccc2)c2ccccc2)CC1 [Cyclizine hydrochloride] (20 µM)

Given back:
[1.01, 0.994, 0.994, 1.01, 1, 1.08, 0.987]

Give fold change of Cadaverine concentration for each of the items listed below.
1. C[N+]1(CCCCC[N+]2(C)CCCC2)CCCC1 [Pentolinium bitartrate] (20 µM)
2. NC(=O)N1c2ccccc2CC(=O)c2ccccc21 [Oxcarbazepine] (20 µM)
3. CCN(CC)CC(=O)Nc1c(C)cccc1C [Lidocaine hydrochloride] (20 µM)
4. CCN(CC)CCOC(=O)C(c1ccccc1)c1ccccc1 [Adiphenine hydrochloride] (20 µM)

Given back:
0.999
0.994
0.988
1.03

* * *

Would you mind telling me the reported growth of each entry?
Test system: Clostridium sporogenes DSM 1664
test protocol: growth (OD595) fold change vs plate DMSO controls (fold change (ratio)); higher = more growth
test parameters: incubation time: 27 h, anaerobic, 37 °C
Counter-ions that a name gives are not always drawn.

// solved cases for growth follow
CC/C=C(\C(=O)N[C@@H]1C(=O)N2C(C(=O)OCOC(=O)C(C)(C)C)=C(COC(N)=O)CS[C@H]12)c1csc(N)n1 [Cefcapene pivoxil hydrochloride monohydrate] (20 µM) :: 0.716
OC[C@H]1O[C@H](O[C@]2(CCl)O[C@H](CCl)[C@@H](O)[C@@H]2O)[C@H](O)[C@@H](O)[C@H]1Cl [Sucralose] (50 µM) :: 1
OC(c1cc(C(F)(F)F)nc2c(C(F)(F)F)cccc12)C1CCCCN1 (stereo not given) [Mefloquine hydrochloride] (20 µM) :: 0.869
CCCN(CCC)C(=O)C(CCC(=O)O)NC(=O)c1ccccc1 (stereo not given) [Proglumide] (20 µM) :: 0.898

# evaluate next
Asked: Please give the measured growth for this compound: C=C(NC(=O)C(=C)NC(=O)c1csc(C2=N[C@@H]3c4csc(n4)[C@H]4NC(=O)c5csc(n5)[C@H]([C@](C)(O)[C@@H](C)O)NC(=O)[C@H]5CSC(=N5)/C(=C/C)NC(=O)[C@H]([C@@H](C)O)NC(=O)c5csc(n5)[C@]3(CC2)NC(=O)[C@H](C)NC(=O)C(=C)NC(=O)[C@H](C)NC(=O)[C@H]([C@@H](C)CC)N[C@@H]2C=Cc3c([C@H](C)O)cc(nc3[C@H]2O)C(=O)O[C@@H]4C)n1)C(N)=O [Thiostrepton] (20 µM)
Given back: 0.00647

* * *

System: Escherichia coli IAI1
test protocol: growth (OD595) fold change vs plate DMSO controls (fold change (ratio)); higher = more growth
test parameters: incubation time: 27 h, anaerobic, 37 °C
Counter-ions that a name gives are not always drawn.
readout name: growth
One number for each entry.

CC1(C)O[C@@H]2[C@@H](CO[C@@]3(COS(N)(=O)=O)OC(C)(C)O[C@@H]23)O1 [Topiramate] (20 µM) :: 0.972
C[C@@H]1[C@H](O)[C@@H](C)/C=C/C=C/C=C/C=C/C=C/C=C/C=C/[C@H](O[C@@H]2O[C@H](C)[C@@H](O)[C@H](N)[C@@H]2O)C[C@@H]2O[C@](O)(C[C@@H](O)C[C@@H](O)[C@H](O)CC[C@@H](O)C[C@@H](O)CC(=O)O[C@H]1C)C[C@H](O)[C@H]2C(=O)O [Amphotericin B] (20 µM) :: 1.01
O=S(=O)(O)c1cc(O)ccc1O [Ethamsylate diethylammonium salt] (20 µM) :: 0.975

Asked: GET /values?readout=growth&system=Escherichia coli IAI1&item= C1N2CN3CN1CN(C2)C3 [Methenamine] (20 µM)
Given back: 0.986
